# target.entity: Focal adhesion kinase 1 (Homo sapiens) (UniProt Q05397)
# Sequence (Q05397 2-1052 limits assumed): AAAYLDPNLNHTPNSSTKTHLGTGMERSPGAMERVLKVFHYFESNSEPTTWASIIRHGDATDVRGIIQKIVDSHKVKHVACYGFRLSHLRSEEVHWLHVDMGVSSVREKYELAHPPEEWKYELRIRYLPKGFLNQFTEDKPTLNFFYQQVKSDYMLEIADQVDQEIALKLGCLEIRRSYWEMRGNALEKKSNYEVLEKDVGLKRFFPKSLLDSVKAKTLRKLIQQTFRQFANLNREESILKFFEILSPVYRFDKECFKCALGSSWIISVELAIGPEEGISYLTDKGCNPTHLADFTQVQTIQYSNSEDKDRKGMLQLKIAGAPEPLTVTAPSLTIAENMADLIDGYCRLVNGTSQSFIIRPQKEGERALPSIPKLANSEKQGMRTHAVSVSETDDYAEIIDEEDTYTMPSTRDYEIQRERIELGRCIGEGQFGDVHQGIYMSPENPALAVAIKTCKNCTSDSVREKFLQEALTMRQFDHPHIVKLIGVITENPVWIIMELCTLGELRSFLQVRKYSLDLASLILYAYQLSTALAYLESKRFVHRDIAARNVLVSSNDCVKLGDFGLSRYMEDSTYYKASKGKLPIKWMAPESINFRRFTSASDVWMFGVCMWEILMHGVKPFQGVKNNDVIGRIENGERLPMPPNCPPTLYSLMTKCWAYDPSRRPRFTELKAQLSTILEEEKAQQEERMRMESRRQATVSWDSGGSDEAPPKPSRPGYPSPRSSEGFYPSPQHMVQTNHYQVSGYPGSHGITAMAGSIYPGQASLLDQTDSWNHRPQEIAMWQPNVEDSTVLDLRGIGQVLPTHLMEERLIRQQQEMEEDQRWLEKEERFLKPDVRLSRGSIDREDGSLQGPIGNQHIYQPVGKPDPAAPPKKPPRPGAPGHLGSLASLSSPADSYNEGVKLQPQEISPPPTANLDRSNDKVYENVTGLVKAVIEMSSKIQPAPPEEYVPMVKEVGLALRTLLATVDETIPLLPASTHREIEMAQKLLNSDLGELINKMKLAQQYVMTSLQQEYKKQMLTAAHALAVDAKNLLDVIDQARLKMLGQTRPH
# run.description: Inhibition of PTK2 (unknown origin) at 500 nM
Please respond with reported inhibition for every item in the list.

These recorded examples may help you get a feel for the data.
In [3]: df
Out[3]:
                              sample_smiles                             target_entity  recorded_value
0  COc1cc(C(N)=O)ccc1-c1cc2c(N[C@H](CO)c3ccccc3)ncnc2s1  Focal adhesion kinase 1 (Homo sapiens) (UniProt Q05397)              3%
1  C#Cc1cccc(Nc2ncnc3sc(-c4ccc(CO)cc4OC)cc23)c1  Focal adhesion kinase 1 (Homo sapiens) (UniProt Q05397)              0%
2  COc1cc(CO)ccc1-c1cc2c(N[C@H](C)c3ccccc3)ncnc2s1  Focal adhesion kinase 1 (Homo sapiens) (UniProt Q05397)              6%
3  COc1cc(CO)ccc1-c1cc2c(Nc3ccc(F)c(Cl)c3)ncnc2s1  Focal adhesion kinase 1 (Homo sapiens) (UniProt Q05397)             16%
4  C[C@@H](Nc1ncnc2sc(-c3ccc(C(=O)NCCN(C)C)cc3)cc12)c1ccccc1  Focal adhesion kinase 1 (Homo sapiens) (UniProt Q05397)              7%

# input for lookup
Problem: Kindly indicate its recorded inhibition. Item: COc1cc(CO)ccc1-c1cc2c(N[C@H](CO)c3ccccc3)ncnc2s1
Solution: 1%

###

Please respond with reported solubility kinetic at 2 h for every item in the list.
# run.description: Aqueous solubility of compound in 0.01 M PBS buffer at pH 7.4 after 2 hrs by turbidimetric assay
# Format: physicochemical

These recorded examples may help you get a feel for the data.
>>> print(df.to_string())
                              sample_smiles         measured_attribute  recorded_value
0  C[C@@H](Nc1ncnc2sc(-c3cccc(C(=O)NCCN(C)C)c3)cc12)c1ccccc1  solubility kinetic at 2 h        > 100 µM
1  COc1cc(C(=O)NCCN(C)C)ccc1-c1cc2c(N[C@H](C)c3ccccc3)ncnc2s1  solubility kinetic at 2 h        > 100 µM

# input for lookup
Problem: Kindly indicate its recorded solubility kinetic at 2 h. Item: COc1ccc(C(=O)NCCN(C)C)cc1-c1cc2c(N[C@H](C)c3ccccc3)ncnc2s1
Solution: > 100 µM

###

# target.entity: Mitogen-activated protein kinase 1 (Homo sapiens) (UniProt P28482)
# Sequence (P28482 whole entry): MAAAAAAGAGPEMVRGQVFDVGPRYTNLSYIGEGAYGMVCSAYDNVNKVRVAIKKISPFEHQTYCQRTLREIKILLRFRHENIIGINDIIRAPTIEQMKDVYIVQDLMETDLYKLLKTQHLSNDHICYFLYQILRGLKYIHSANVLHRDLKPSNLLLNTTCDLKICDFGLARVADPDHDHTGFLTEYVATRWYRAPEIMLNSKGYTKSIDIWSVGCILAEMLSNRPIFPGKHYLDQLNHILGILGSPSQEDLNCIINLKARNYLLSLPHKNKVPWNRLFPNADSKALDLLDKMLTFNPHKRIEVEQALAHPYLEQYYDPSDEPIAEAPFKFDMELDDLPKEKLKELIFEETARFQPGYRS
# run.description: Inhibition of MAPK1 (unknown origin) at 500 nM
measured.attribute: inhibition

>>> df
                              sample_smiles  measured_attribute  recorded_value
0  COc1cc(C(N)=O)ccc1-c1cc2c(N[C@H](CO)c3ccccc3)ncnc2s1          inhibition             12%
1  COc1cc(CO)ccc1-c1cc2c(N[C@H](CO)c3ccccc3)ncnc2s1          inhibition              7%
2  C[C@@H](Nc1ncnc2sc(-c3ccccc3C(N)=O)cc12)c1ccccc1          inhibition              9%
3  CN(C)CCNC(=O)c1ccc(-c2cc3c(N[C@H](CO)c4ccccc4)ncnc3s2)cc1          inhibition             -2%
4  C#Cc1cccc(Nc2ncnc3sc(-c4ccc(CO)cc4OC)cc23)c1          inhibition              1%

Problem: Kindly indicate its recorded inhibition. Item: C[C@@H](Nc1ncnc2sc(-c3ccc(C(=O)NCCN(C)C)cc3)cc12)c1ccccc1
Solution: 9%
